These entries and their values trace back to patent US12351571B2.

- SYSTEM_NAME: human wild type FGFR1 (Homo sapiens (Human))
- Sequence (P11362 22-822): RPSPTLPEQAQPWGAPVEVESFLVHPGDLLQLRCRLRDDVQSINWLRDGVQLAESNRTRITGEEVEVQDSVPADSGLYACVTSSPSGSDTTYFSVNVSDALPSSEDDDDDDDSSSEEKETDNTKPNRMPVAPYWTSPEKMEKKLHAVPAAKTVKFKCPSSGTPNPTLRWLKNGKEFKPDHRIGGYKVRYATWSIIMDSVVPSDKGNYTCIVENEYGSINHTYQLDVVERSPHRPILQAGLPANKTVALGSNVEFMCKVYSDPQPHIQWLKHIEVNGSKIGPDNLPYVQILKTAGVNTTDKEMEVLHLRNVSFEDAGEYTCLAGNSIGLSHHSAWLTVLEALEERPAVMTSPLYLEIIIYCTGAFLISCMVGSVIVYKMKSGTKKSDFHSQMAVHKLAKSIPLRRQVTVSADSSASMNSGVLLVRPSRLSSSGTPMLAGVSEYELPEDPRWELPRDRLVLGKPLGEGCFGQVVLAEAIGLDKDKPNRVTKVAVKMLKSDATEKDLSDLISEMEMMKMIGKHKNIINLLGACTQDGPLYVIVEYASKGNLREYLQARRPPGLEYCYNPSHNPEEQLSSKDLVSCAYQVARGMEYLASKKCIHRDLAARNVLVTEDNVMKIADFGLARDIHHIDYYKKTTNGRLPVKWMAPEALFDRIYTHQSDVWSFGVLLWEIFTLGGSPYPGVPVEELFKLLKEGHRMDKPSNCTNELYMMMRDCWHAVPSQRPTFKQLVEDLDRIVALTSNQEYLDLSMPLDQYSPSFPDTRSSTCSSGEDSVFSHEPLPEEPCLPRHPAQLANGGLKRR
- ASSAY_TEXT: FGFR1 pERK Cell Assay
- CONDITION_SET: HEK-293 cells, 1 hour compound, 100 ng/ml human FGF-acidic; maximum concentration 5 μM
- Method: HEK-293 cells transfected with doxycycline(dox)-inducible human wild type FGFR1 (SEQ ID NO: 1) were plated in a collagen or poly-D-lysine coated 96 well flat bottom plates at 4×10^5 cells/well in complete Dulbecco's Modified Eagle Medium (DMEM) containing 10% FBS and 1 μg/ml doxycycline and allowed to attach for 24 h at 37° C., 5% CO2. […] Phospho ERK1/2 was measured using the Meso Scale Discovery sandwich assay (Meso Scale Discovery cat. no. K151DWD). […]
MEASUREMENT_LABEL: IC50 (µM)

SMILES_INPUT	MEASUREMENT_LABEL	ENDPOINT_RESULT
C=CC(=O)N1CC(O)(C(=O)N2CCC(n3cc(-c4cnc5ccc(Nc6cc(OC)cc(OC)c6)cc5n4)cn3)CC2)C1	IC50	1.65
C=CC(=O)N1CC(C(=O)N2CCN(c3ccc(-c4cnc5ccc(Nc6cc(OC)cc(OC)c6)cc5n4)cn3)CC2)C1	IC50	2.69
C=CC(=O)N1CC(O)(C(=O)N2CCC(n3cc(-c4cnc5ccc(N(C)c6cc(OC)cc(OC)c6)cc5n4)cn3)CC2)C1	IC50	0.128
COc1cc(Nc2ccc3ncc(-c4cnn(C5CCN(C(=O)C6CN(C(=O)/C=C/CN(C)C)C6)CC5)c4)nc3c2)cc(OC)c1	IC50	2.23

P: C=CC(=O)N1CC(CN2CCC(n3cc(-c4cnc5ccc(Nc6cc(OC)cc(OC)c6)cc5n4)cn3)CC2)C1
Q: C=CC(=O)N1CC(C#N)(C(=O)N2CCC(n3cc(-c4cnc5ccc(Nc6cc(OC)cc(OC)c6)cc5n4)cn3)CC2)C1
[ask] Pick one: P or Q . Which one has the lower reported IC50? Mark your selection by writing its label.
[reply] Q
